- Test system: platelet aggregation in platelet-rich plasma (PRP)
- TEST SUMMARY: In vitro inhibition of platelet aggregation, method of Born
- Format: cell-based
- MEASUREMENT CONTEXT: Oryctolagus cuniculus, stimulus: adenosine diphosphate (ADP), rabbit PRP, read-out: IC50 of diethyl sulphite
MEASURED METRIC: IC50 (mM)

>>> recorded_result("CCOS(=O)OCC")
35
